Target: T1, recombinant human domain 1-3His6 of the cation-independent mannose-6-phosphate receptor (human, UniProt P11717 41-467)
T1 construct: Biotinylated (NHS-PEG4-biotin) for BLI; Glycosylated; also called hDom1-3His6; hCI-M6PRD1-D3
Experiment: BLI exp 1, dissoc pH 5
Lab note: anything with kon at or over 300000 M⁻¹ s⁻¹ counts as 1; the rest go in -1.

Form field: kon at least 300000 M⁻¹ s⁻¹? Entry: anti-CI-M6PR VHH10 (VHH, His6-tagged; made in Pichia pastoris) VHH: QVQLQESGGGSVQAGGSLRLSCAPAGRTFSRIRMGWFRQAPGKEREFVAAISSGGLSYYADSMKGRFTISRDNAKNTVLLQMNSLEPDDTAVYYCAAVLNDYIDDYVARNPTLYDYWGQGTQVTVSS
-1

Entry anti-CI-M6PR VHH11 (VHH, His6-tagged; made in Pichia pastoris) VHH: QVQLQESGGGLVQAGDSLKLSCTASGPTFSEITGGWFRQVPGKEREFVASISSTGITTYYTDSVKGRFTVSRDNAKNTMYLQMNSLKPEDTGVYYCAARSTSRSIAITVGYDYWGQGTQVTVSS : is its kon no less than 300000 M⁻¹ s⁻¹?
-1

Please check the record anti-CI-M6PR VHH7 (VHH, His6-tagged (Pichia pastoris)) VHH: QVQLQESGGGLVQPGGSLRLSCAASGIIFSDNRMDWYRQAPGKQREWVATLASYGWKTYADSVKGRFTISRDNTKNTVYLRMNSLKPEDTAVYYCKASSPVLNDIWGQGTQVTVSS and state if its kon is at or above 300000 M⁻¹ s⁻¹.
1

Kindly determine if kon recorded for anti-CI-M6PR VHH4 (VHH, His6-tagged; made in Pichia pastoris) VHH: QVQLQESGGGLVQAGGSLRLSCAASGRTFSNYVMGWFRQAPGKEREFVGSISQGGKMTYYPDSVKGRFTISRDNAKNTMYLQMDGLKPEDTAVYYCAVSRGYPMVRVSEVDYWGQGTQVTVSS is above or exactly 300000 M⁻¹ s⁻¹.
1

Would you say anti-CI-M6PR VHH1 (VHH, His6-tagged; made in Pichia pastoris, later also in E. coli WK6) VHH: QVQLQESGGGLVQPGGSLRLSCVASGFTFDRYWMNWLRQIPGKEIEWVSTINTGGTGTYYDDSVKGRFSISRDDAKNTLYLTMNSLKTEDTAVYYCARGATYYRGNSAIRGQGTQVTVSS shows kon at minimum 300000 M⁻¹ s⁻¹?
1

# bool: kon of anti-CI-M6PR VHH5 (VHH, His6-tagged; made in Pichia pastoris, later also in E. coli WK6) VHH: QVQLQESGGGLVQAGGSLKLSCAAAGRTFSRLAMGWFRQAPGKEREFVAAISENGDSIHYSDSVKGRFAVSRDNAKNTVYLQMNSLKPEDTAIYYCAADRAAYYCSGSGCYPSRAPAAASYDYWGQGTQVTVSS >= 300000 M⁻¹ s⁻¹
1

Determine whether measured kon meets or exceeds 300000 M⁻¹ s⁻¹ for anti-CI-M6PR VHH6 (VHH, His6-tagged; made in E. coli) VHH: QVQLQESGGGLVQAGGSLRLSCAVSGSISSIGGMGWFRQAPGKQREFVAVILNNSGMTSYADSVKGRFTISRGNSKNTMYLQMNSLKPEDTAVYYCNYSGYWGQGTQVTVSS
1
